- System: Plasmodium falciparum
- Assay info: Screen against P. falciparum Asexual Blood Stage (ABS), at 5uM
- Type: functional, Dd2
- Condition: tested at 5 uM
The campaign covered roughly 65,000 compounds. About 2,100 (3.2%) showed an effect of 50% or more. The median lay at about -52%. For the sample, strong results were picked, then their nearest neighbours and some compounds at random.
Entries are sorted into classes by INHIBITION as follows: zone 1: < -60%; zone 2: ≥ -60% and < 20%; zone 3: ≥ 20%

[
  {
    "Compound": "Cc1nocc1C(=O)N1CCOC2(COCCN(CC3CC3)C2)C1 (stereo unspecified)",
    "Label": "zone 1"
  },
  {
    "Compound": "Cc1cccc(CN2CCN3C[C@H](Oc4cncnc4)C[C@H]3C2)n1",
    "Label": "zone 1"
  },
  {
    "Compound": "Cc1nc(CC(=O)N2CCN(C)CC2c2ccccc2)cs1 (stereo unspecified)",
    "Label": "zone 1"
  },
  {
    "Compound": "CCCN1CCN(C(=O)Cc2nc(-c3ccco3)oc2C)CC1",
    "Label": "zone 2"
  },
  {
    "Compound": "O=C(Nc1ccccc1)[C@H]1CN2CCC1C[C@@H]2Cn1cc(CO)nn1 (stereo partly specified)",
    "Label": "zone 2"
  }
]

Query: Consider O=C(c1ccc(F)c(F)c1)N1C[C@H]2CNC[C@H]2C1 . To which INHIBITION class does it belong?
Reply: zone 2

Query: Next compound up: O=C(N[C@H]1CN[C@H]2CCCO[C@H]21)c1cccnc1
Reply: zone 2

Query: // next record Cc1cc(C)cc(CN2C[C@H]3COC[C@H](N4CCN(C)CC4)[C@H]3C2)c1
Reply: zone 3

====

- Tested on: Plasmodium falciparum
- Assay info: Screen against P. falciparum Asexual Blood Stage (ABS), at 5uM
- Type: functional, Dd2
- Condition: tested at 5 uM
In all, about 65,000 compounds went through this assay and about 2,100 (3.2%) showed an effect of 50% or more. The median lay at about -52%. For the sample, strong results were picked, then their nearest neighbours and some compounds at random.
Quantity kind: INHIBITION
Could you give the number and then its unit, please?

Some solved cases for reference:
[
  {
    "Molecule": "Cc1ccc(CN2CC[C@]3(C[C@H](OCc4ccccn4)CO3)C2)o1",
    "INHIBITION": "22.1%"
  },
  {
    "Molecule": "CNC(=O)c1ccc2c(c1)C1(CCN(CC(C)C)CC1)C(=O)N2",
    "INHIBITION": "-15.5%"
  },
  {
    "Molecule": "CC(=O)NC[C@H]1C[C@@H]2CCN1C[C@@H]2c1cc(-c2cccs2)nn1C",
    "INHIBITION": "-50.5%"
  },
  {
    "Molecule": "CCCN1CCC2(Cc3ccccc3NC2=O)C1 (stereo unspecified)",
    "INHIBITION": "-3.59%"
  },
  {
    "Molecule": "COCCNC(=O)[C@@]12CCO[C@@H]1CCN(Cc1c(C)noc1C)C2",
    "INHIBITION": "-191%"
  },
  {
    "Molecule": "CN(CC1Cc2ccccc2CN1C)C(=O)Cc1cccs1 (stereo unspecified)",
    "INHIBITION": "-12.1%"
  }
]

Query: For the molecule OCCN1CCOC2(CCCN(c3ncccn3)C2)C1 (stereo unspecified) , what INHIBITION is on record?
Reply: -14.1%

Query: Another molecule to check: Cc1cc(CN2C[C@@H]3COC[C@]3(COCC(=O)N(C)C)C2)no1
Reply: -23%

Query: Also need OCCN1CCOC2(CCCN(c3ncc(F)cn3)C2)C1 (stereo unspecified) , thanks.
Reply: 11%

Query: One more molecule: CCN(CC)c1nc(Nc2cccc(C(C)O)c2)nc2ccccc12 (stereo unspecified)
Reply: 84.5%

Query: Try the molecule Cc1ccc(CN2CC3(CCN(C(=O)c4cccnc4)C3)C2)o1
Reply: -143%
